All values here come from the supplement of paper PMC7877785.

- PROTOCOL TEXT: self-splicing fitness, log relative to wild type (ln ratio); higher = more splicing; Tetrahymena group I intron in knt gene, E. coli kanamycin selection, DiMSum; sequences stand for … in CUCUCU…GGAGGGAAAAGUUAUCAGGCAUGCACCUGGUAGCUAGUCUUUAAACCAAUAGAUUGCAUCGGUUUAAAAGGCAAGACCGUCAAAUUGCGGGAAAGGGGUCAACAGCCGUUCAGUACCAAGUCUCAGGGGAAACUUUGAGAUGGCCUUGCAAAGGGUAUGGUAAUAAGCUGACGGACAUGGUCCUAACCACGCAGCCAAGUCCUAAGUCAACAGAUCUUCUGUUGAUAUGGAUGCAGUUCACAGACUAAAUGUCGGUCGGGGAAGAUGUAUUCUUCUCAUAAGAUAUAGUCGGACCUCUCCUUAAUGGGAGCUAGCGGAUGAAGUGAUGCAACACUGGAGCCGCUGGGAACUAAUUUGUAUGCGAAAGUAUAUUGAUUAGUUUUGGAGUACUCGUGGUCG;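 note: selection with 25 µg/mL kanamycin versus none on LB agar overnight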
- EXPERIMENTAL PARAMETERS: 37 °C
Classify by measured self-splicing fitness (ln): YES if it is equal to or exceeds -2, NO if it is smaller.

Solved entries (count: 8):
Ask: Has `ACUAAGCAAUAUUACGUUCG` a recorded self-splicing fitness (ln) greater than or equal to -2?
Result: YES

Ask: Is self-splicing fitness (ln) for `UCGCAGCAAUAUUACGCGUC` at or above -2?
Result: YES

Ask: Hi, just wondering whether `AUCGAGCAAUAUUACGAUAA` shows self-splicing fitness (ln) of -2 or higher.
Result: YES

Ask: Answer whether self-splicing fitness (ln) of `UCGAAGCAAUAUUACGGGAC` is greater than or equal to -2.
Result: NO

Ask: Answer whether self-splicing fitness (ln) of `CGCAAGCAAUAUUACGCCGC` is greater than or equal to -2.
Result: YES

Ask: Determine whether this sequence has self-splicing fitness (ln) no lower than -2: `UGCGAGCAAUAUUACGAGGA`
Result: NO

Ask: Given the entry `GAUAAGCAAUAUUACGGGCA` , answer whether its self-splicing fitness (ln) meets or surpasses -2.
Result: YES

Ask: Hello, I need to know if `GCACAGCAAUAUUACGAAAA` has measured self-splicing fitness (ln) not below -2. Thanks!
Result: YES

***
Ask: Test whether the sequence `GGACAGCAAUAUUACGAUCA` records self-splicing fitness (ln) of -2 or higher.
Result: YES

Ask: Confirm if self-splicing fitness (ln) reported for the sequence `ACGGAGCAAUAUUACGCAUU` is -2 or above.
Result: NO

Ask: Check this sequence for self-splicing fitness (ln) at or above -2: `UCAUAGCAAUAUUACGCCUA`
Result: YES

Ask: Check this sequence for self-splicing fitness (ln) at or above -2: `GGACAGCAAUAUUACGGGUA`
Result: YES

Ask: Check if self-splicing fitness (ln) >= -2 (inclusive). Item: `CAGAAGCAAUAUUACGCCUU`
Result: YES

Ask: Check if self-splicing fitness (ln) >= -2 (inclusive). Item: `CAAGAGCAAUAUUACGAAGA`
Result: NO

Ask: Is self-splicing fitness (ln) at least -2? Consider `GCGUAGCAAUAUUACGACUU`
Result: YES

Ask: In plain terms: is recorded self-splicing fitness (ln) at least -2 for `GGCGAGCAAUAUUACGGACU` ?
Result: YES

Ask: Does `GAGCAGCAAUAUUACGACUA` have a reported self-splicing fitness (ln) of at least -2?
Result: YES

Ask: Decide: self-splicing fitness (ln) of `UAGUAGCAAUAUUACGUUGU` >= -2?
Result: NO

Ask: Tell me whether self-splicing fitness (ln) is at least -2 here: `UUCUAGCAAUAUUACGCAUU`
Result: YES

Ask: Record `UCUCAGCAAUAUUACGGACU` ; criterion: self-splicing fitness (ln) no lower than -2. Met?
Result: YES

Ask: # bool: self-splicing fitness (ln) of `UGCCAGCAAUAUUACGUCGA` >= -2
Result: YES

Ask: Has `GAAUAGCAAUAUUACGCGAG` a recorded self-splicing fitness (ln) greater than or equal to -2?
Result: YES

Ask: Confirm if self-splicing fitness (ln) reported for the sequence `GAACAGCAAUAUUACGUUCG` is -2 or above.
Result: YES

Ask: Form field: self-splicing fitness (ln) at least -2? Entry: `AUGAAGCAAUAUUACGAGUC`
Result: NO

====

Documented self-splicing fitness (ln) across a set of sequences
- PROTOCOL TEXT: self-splicing fitness, log relative to wild type (ln ratio); higher = more splicing; Tetrahymena group I intron in knt gene, E. coli kanamycin selection, DiMSum; sequences stand for … in CUCUCU…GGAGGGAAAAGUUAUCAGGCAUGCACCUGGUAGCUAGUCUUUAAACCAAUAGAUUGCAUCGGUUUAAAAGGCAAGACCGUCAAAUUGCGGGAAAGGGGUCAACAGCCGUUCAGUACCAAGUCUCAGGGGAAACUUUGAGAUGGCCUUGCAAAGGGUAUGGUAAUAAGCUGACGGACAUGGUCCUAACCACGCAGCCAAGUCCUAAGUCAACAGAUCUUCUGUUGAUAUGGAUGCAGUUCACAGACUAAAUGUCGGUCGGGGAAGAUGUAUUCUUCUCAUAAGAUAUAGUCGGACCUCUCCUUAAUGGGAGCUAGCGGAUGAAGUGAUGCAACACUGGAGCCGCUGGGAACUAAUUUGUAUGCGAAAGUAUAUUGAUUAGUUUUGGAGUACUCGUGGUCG
- EXPERIMENTAL PARAMETERS: 30 °C
Keep it simple and answer with nothing but the number.

See these solved cases before continuing.
Ask: Record request: self-splicing fitness (ln) value, item `CCCUAGCAAUAUUACGUUGA`
Result: -3.23

Ask: # lookup: self-splicing fitness (ln) of `GCGAAGCAAUAUUACGCCGU`
Result: -3.41

Ask: Fill blank: measured self-splicing fitness (ln) of the sequence `UUCAAGCAAUAUUACGCUUG` is ____.
Result: -2.15

Ask: Field request: self-splicing fitness (ln) | item: `UUACAGCAAUAUUACGAUAU`
Result: -1.83

Ask: State the recorded self-splicing fitness (ln) for this entry: `CAGGAGCAAUAUUACGUGCU`
Result: -2.91

New cases:
Ask: Quick one: self-splicing fitness (ln) of `AUGUAGCAAUAUUACGCCGA` ?
Result: -2.44

Ask: Looking for the measured self-splicing fitness (ln) of `UCUAAGCAAUAUUACGGCAG` , can you help?
Result: -1.35

Ask: Endpoint output: self-splicing fitness (ln) of `UCAUAGCAAUAUUACGCACG` . Value?
Result: -2.05

Ask: Could you share which self-splicing fitness (ln) value was measured for `CCGCAGCAAUAUUACGUUCA` ?
Result: -3.89

Ask: Entry under review: `UCAGAGCAAUAUUACGCGUG` . Reported self-splicing fitness (ln)?
Result: -2.31

Ask: Any idea what its self-splicing fitness (ln) is? The sequence is `UUUCAGCAAUAUUACGCGCC`
Result: -1.72

====

- PROTOCOL TEXT: self-splicing fitness, log relative to wild type (ln ratio); higher = more splicing; Tetrahymena group I intron in knt gene, E. coli kanamycin selection, DiMSum; sequences stand for … in CUCUCU…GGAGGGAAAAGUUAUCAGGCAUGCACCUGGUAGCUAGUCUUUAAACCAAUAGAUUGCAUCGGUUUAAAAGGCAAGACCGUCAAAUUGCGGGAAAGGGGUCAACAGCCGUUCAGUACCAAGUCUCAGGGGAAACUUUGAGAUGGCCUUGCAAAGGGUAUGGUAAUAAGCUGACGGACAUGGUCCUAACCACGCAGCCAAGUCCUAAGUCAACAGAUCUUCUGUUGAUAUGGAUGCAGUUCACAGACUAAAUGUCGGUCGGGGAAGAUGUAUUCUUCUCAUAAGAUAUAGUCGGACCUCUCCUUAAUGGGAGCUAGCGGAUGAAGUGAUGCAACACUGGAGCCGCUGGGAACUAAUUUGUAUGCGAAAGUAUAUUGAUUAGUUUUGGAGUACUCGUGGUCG
- EXPERIMENTAL PARAMETERS: 30 °C
# self-splicing fitness (ln) annotations

// worked examples, self-splicing fitness (ln) included
Ask: Name the reported self-splicing fitness (ln) value associated with the sequence `GCACAGCAAUAUUACGGAUC`
Result: -0.505

Ask: Reported self-splicing fitness (ln), sequence `UAAUAGCAAUAUUACGAGUA` : ____
Result: -2.31

Ask: Record request: self-splicing fitness (ln) value, item `CCGUAGCAAUAUUACGGGGA`
Result: -3.45

Ask: Which self-splicing fitness (ln) reading was recorded for the sequence `UAUCAGCAAUAUUACGCACG` ?
Result: -0.349

Ask: Returns the measured self-splicing fitness (ln) for the input sequence. Input: `GUGUAGCAAUAUUACGUGGA`
Result: -3.41

Ask: Name the recorded self-splicing fitness (ln) for `GAUCAGCAAUAUUACGAGCC` .
Result: -0.966

Ask: I would be grateful if you could share the reported self-splicing fitness (ln) for `GUGUAGCAAUAUUACGAACU` .
Result: -1.57

Ask: Suppose we examine the sequence `UAAGAGCAAUAUUACGUAGC` ; what self-splicing fitness (ln) value has been reported?
Result: -4.28

Ask: Fill blank: measured self-splicing fitness (ln) of the sequence `GUCGAGCAAUAUUACGGUUG` is ____.
Result: -2.68

Ask: Would you kindly share the measured self-splicing fitness (ln) for `CAUGAGCAAUAUUACGACAG` ?
Result: -1.89

More entries:
Ask: Which self-splicing fitness (ln) value belongs to `UUCUAGCAAUAUUACGAAUG` ?
Result: -2.45

Ask: Which self-splicing fitness (ln) is listed for `GACUAGCAAUAUUACGGUAU` ?
Result: -1.3

Ask: Value lookup for self-splicing fitness (ln); key = `AUUCAGCAAUAUUACGGGGG`
Result: -2.77
